Tested on: Rattus norvegicus
experimental_details: In vivo non-competitive antagonist activity at angiotensin 2 receptor in ganglion-blocked vagotomized rat assessed as angiotensin-2 dose ratio at 250 ng/kg/min administered as an infusion
Format: functional
Non-standard residues stand in square brackets, D forms with d. Residues, ends and D or L forms follow the SMILES beside them. Sar = CNCC(=O)O
observed_property: Ratio
Kindly provide the number alone.

molecule=CC[C@H](C)[C@H](NC(=O)[C@H](Cc1ccc(O)cc1)NC(=O)[C@@H](NC(=O)[C@H](CCCN=C(N)N)NC(=O)CNC)C(C)C)C(=O)N[C@@H](Cc1c[nH]cn1)C(=O)N1CCC[C@H]1C(=O)N[C@@H](C)C(=O)O recorded_measurement=7.92
molecule="CC[C@H](C)[C@H](NC(=O)[C@@H]1CCCN1C(=O)[C@H](Cc1c[nH]cn1)NC(=O)[C@@H](NC(=O)[C@H](Cc1ccc(O)cc1)NC(=O)[C@@H](NC(=O)[C@H](CCCN=C(N)N)NC(=O)CNC)C(C)C)[C@@H](C)OC)C(=O)O (H-[Sar]RVYT(Me)HPI-OH)" recorded_measurement=50
molecule=CC[C@H](C)[C@H](NC(=O)[C@@H]1CCCN1C(=O)[C@H](Cc1c[nH]cn1)NC(=O)[C@@H](NC(=O)[C@H](Cc1ccc(O)cc1)NC(=O)[C@@H](NC(=O)[C@H](CCCN=C(N)N)NC(=O)CNC)C(C)C)[C@@H](C)CC)C(=O)O recorded_measurement=27.79

Enter reported Ratio observed with Rattus norvegicus for CC[C@H](C)[C@H](NC(=O)[C@H](Cc1ccc(O)cc1)NC(=O)[C@@H](NC(=O)[C@H](CCCN=C(N)N)NC(=O)CNC)C(C)C)C(=O)N[C@@H](Cc1c[nH]cn1)C(=O)N1CCC[C@H]1C(=O)N[C@H](C(=O)O)[C@@H](C)O (H-[Sar]RVYIHPT-OH) 26.91

Record CC[C@H](C)[C@H](NC(=O)[C@H](Cc1ccc(O)cc1)NC(=O)[C@@H](NC(=O)CN(C)C(=O)CNC)C(C)C)C(=O)N[C@@H](Cc1c[nH]cn1)C(=O)N1CCC[C@H]1C(=O)N[C@H](C(=O)O)[C@@H](C)O (H-[Sar][Sar]VYIHPT-OH) : what is its Ratio with Rattus norvegicus? 1.93

Field: Ratio (Rattus norvegicus). Entry: `CC[C@H](C)[C@H](NC(=O)[C@H](Cc1ccc(O)cc1)NC(=O)[C@@H](NC(=O)[C@H](CCCNC(=N)N)NC(=O)CNC)C(C)C)C(=O)N[C@@H](Cc1cnc[nH]1)C(=O)N1CCC[C@H]1C(=O)NC(C)(C)C(=O)O` 19.76

Recall the recorded Ratio for `CC[C@H](C)[C@H](NC(=O)[C@H](Cc1ccc(O)cc1)NC(=O)[C@@H](NC(=O)[C@H](CCCNC(=N)N)NC(=O)C(C)(C)N)C(C)C)C(=O)N[C@@H](Cc1cnc[nH]1)C(=O)N1CCC[C@H]1C(=O)NC(C)(C)C(=O)O` with Rattus norvegicus and state it. 3.4

Lab request: please report Ratio under test system Rattus norvegicus for `CC[C@H](C)[C@H](NC(=O)[C@H](Cc1ccc(O)cc1)NC(=O)[C@@H](NC(=O)[C@H](CCCNC(=N)N)NC(=O)CNC)C(C)C)C(=O)N[C@@H](Cc1cnc[nH]1)C(=O)N1CCC[C@H]1C(=O)N[C@H](C(=O)O)[C@@H](C)OC` 62.52
